Sourced from patent US8487104B2

# Tested on: human hepatocytes
# Run Description: Human Hepatocyte Assay (HHEP)
# Assay type: in vitro ADME
# Test Context: 1 μM test compound, 0.5 million viable cells/mL
Counter-ions that a name gives are not always drawn.
Doc: threshold 30 μL/min/million (exclusive). Items with HHEP CLint, app beneath it return condition met; others return condition not met.

[[record]]
molecule = "CC(C)Oc1ccc2c(c1)N(O)C(=O)[C@@H](N)C2 [Example 5, HCl Salt]"
class_assignment = "condition not met"

[[record]]
molecule = "COC[C@H](C)Oc1ccc2c(c1)N(O)C(=O)[C@@H](N)C2 [Example 2, HCl Salt]"
class_assignment = "condition met"

[[record]]
molecule = "N[C@H]1Cc2ccccc2N(O)C1=O [Example 4]"
class_assignment = "condition not met"

[[record]]
molecule = "N#Cc1ccc2c(c1)N(O)C(=O)[C@@H](N)C2 [Example 1, HCl Salt]"
class_assignment = "condition met"

